All values here come from patent US5116863A.

Tested on: homologous PCA (passive cutaneous anaphlaxis) of rats
Method description: Homologous PCA (passive cutaneous anaphylaxis) test of rats for 48 hours, oral (antiallergic activity)
Assay type: in vivo, Wistar male rats
Condition summary: Rattus norvegicus, po, dosage 10 mg/kg, positive = inhibition rate 50% or higher, read-out: Number of positive zooids in one group of 3 zooids (converted)
Protocol: Antiallergic activity was investigated by a homologous PCA (passive cutaneous anaphlaxis) of rats for 48 hours, where Wistar male rats having body weights of 180 to 220 g were used for sampling of antiserum and Wistar male rats having body weights of 120 to 140 g were used for the PCA test. Anti-egg white albumin (EWA) rat serum was prepared according to Stotland and Share's method [Canad. J. Physiol. Pharmacol. 52, 1114 (1974)]. […]
Measurement label: responders at 10 mg/kg
Answer with the figure and its unit, nothing else.

Recorded responders at 10 mg/kg, per entry:
Molecule | Target under test | responders at 10 mg/kg
CN(C)CCN=C1c2ccccc2COc2ccc(CC(=O)O)cc21 | homologous PCA (passive cutaneous anaphlaxis) of rats | 100%
CN(C)CC/C=C1/c2ccccc2COc2ccc(CCCO)cc21 | homologous PCA (passive cutaneous anaphlaxis) of rats | 100%
CN1CCN(C/C=C2\c3ccccc3COc3ccc(C(=O)O)cc32)CC1 | homologous PCA (passive cutaneous anaphlaxis) of rats | 33.3%
CN(C)CCCC=C1c2ccccc2COc2ccc(C(=O)O)cc21 | homologous PCA (passive cutaneous anaphlaxis) of rats | 100%

I would be grateful if you could provide responders at 10 mg/kg for each of the following entries.
1. CN1CCN(CC=C2c3ccccc3COc3ccc(CC(=O)O)cc32)CC1
2. O=C(O)c1ccc2c(c1)/C(=C\CN1CCSCC1)c1ccccc1CO2
3. CCN(CC)CC/C=C1/c2ccccc2COc2ccc(C(=O)O)cc21
4. CC(C(=O)O)c1ccc2c(c1)C(=NCCN(C)C)c1ccccc1CO2 (centres unmarked)
5. O=C(O)c1ccc2c(c1)C(=CCCN1CCCC1)c1ccccc1CO2
6. CN(C)CC/C=C1\c2ccccc2COc2ccc(C(=O)O)cc21
7. CN(C)CC/C=C1/c2ccccc2COc2ccc(C(=O)O)cc21 [Compound 3 (cis)]
8. CCN(CC)CCN=C1c2ccccc2COc2ccc(C(=O)O)cc21

1. 100%
2. 0%
3. 100%
4. 100%
5. 66.7%
6. 66.7%
7. 100%
8. 33.3%

---

Give Acute toxicity (MLD), po for every item shown.
Tested on: dd, male mice
Assay type: in vivo
Condition summary: po, mice, mortality 7 days after administration

The following compounds have reported results that may help.
Compound | Acute toxicity (MLD), po
CN(C)CC/C=C1\c2ccccc2COc2ccc(CC(=O)O)cc21 [Compound 20 (trans)] | > 300 mg/kg
CN(C)CC/C=C1/c2ccccc2COc2ccc(CCC(=O)O)cc21 [Compound 28 (cis)] | > 300 mg/kg
CN(C)CCN=C1c2ccccc2COc2ccc(CC(=O)O)cc21 | > 300 mg/kg

Okay, here is my list. What is Acute toxicity (MLD), po for each of these?
1. CN(C)CC/C=C1/c2ccccc2COc2ccc(C(=O)O)cc21 [Compound 3 (cis)]
2. CCN(CC)CCN=C1c2ccccc2COc2ccc(C(=O)O)cc21
3. O=C(O)c1ccc2c(c1)C(=CCN1CCOCC1)c1ccccc1CO2
4. CN(C)CC/C=C1\c2ccccc2COc2ccc(CCO)cc21 [Compound 31 (trans)]
5. CN(C)CC/C=C1\c2ccccc2COc2ccc(CCC(=O)O)cc21 [Compound 28 (trans)]
6. O=C(O)c1ccc2c(c1)C(=CCCN1CCOCC1)c1ccccc1CO2
7. CN(C)CCCC=C1c2ccccc2COc2ccc(CC(=O)O)cc21

> 300 mg/kg
> 300 mg/kg
> 300 mg/kg
> 300 mg/kg
> 300 mg/kg
> 300 mg/kg
> 300 mg/kg

Give me Acute toxicity (MLD), po for each of these compounds, listed below.
1. CN1CCN(CC=C2c3ccccc3COc3ccc(CC(=O)O)cc32)CC1
2. CN(C)CC/C=C1/c2ccccc2COc2ccc(CCO)cc21 [Compound 31 (cis)]
3. CCN(CC)CCN=C1c2ccccc2COc2ccc(CC(=O)O)cc21
4. CN(C)CCCC=C1c2ccccc2COc2ccc(C(=O)O)cc21
5. CN(C)CC/C=C1/c2ccccc2COc2ccc(/C=C/C(=O)O)cc21
6. CN(C)CCC=C1c2ccccc2COc2ccc(CCC(=O)O)cc21
7. CC(C(=O)O)c1ccc2c(c1)C(=NCCN(C)C)c1ccccc1CO2 (centres unmarked)

1. > 300 mg/kg
2. 300 mg/kg
3. > 300 mg/kg
4. > 300 mg/kg
5. > 300 mg/kg
6. > 300 mg/kg
7. > 300 mg/kg
